Source listed as patent US20170173151A1.

Consider the following binders and their measured % kill of M4A4 cells at 10 µg/mL readings.
molecular target: human CD74, naturally expressed on cells (Raji, Daudi, M4A4, NCI-H747 cells; human tonsil tissue) (human) (UniProt P04233); assay: cell-based or functional assay
measured.parameter: % kill of M4A4 cells at 10 µg/mL (%)

| binder | measured.parameter | quantitative.readout |
| --- | --- | --- |
| HuMab-CD74-011-vcMMAE (antibody, IgG1, V domains shown, drug-linker vcMMAE alkylated to the cysteines of the reduced antibody (DAR 3.8-3.9), Antibody-drug conjugate of HuMab-CD74-011 (IgG1,kappa); also called vcMMAE-conjugated HuMab-CD74-011) VH: QVQLVESGGGVVQPGRSLRLSCAASGFTFSSYGMHWVRQAPDKGLEWVAVIWYDGSNKYYADSVKGRFTISRDNSKNTLYLQMNSLRAEDTAVYYCARGGTLVRGAMYGTDVWGQGTTVTVSS VL: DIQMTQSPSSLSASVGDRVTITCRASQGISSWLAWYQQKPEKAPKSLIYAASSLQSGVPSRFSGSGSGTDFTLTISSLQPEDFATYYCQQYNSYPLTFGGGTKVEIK | % kill of M4A4 cells at 10 µg/mL | 100 |
| HuMab-CD74-005-vcMMAE (antibody, IgG1, V domains shown, drug-linker vcMMAE alkylated to the cysteines of the reduced antibody (DAR 3.9-4.0), Antibody-drug conjugate of HuMab-CD74-005 (IgG1,kappa); also called vcMMAE-conjugate of HuMab-CD74-005) VH: QVQLVESGGGVVQPGRSLRLSCAASGFTFSSYAMHWVRQAPGKGLEWVAVISYDGSNKYYADSVKGRFTISRDNSKNTLYLQMNSLRAEDTAVYYCASGRYYGSGSYSSYFDYWGQGTLVTVSS VL: DIQMTQSPSSLSASVGDRVTITCRASQGISSWLAWFQQKPEKAPKSLIYAASSLQSGVPSRFSGSGSGTDFTLTISSLQPEDFATYYCQQYNSYPLTFGGGTKVEIK | % kill of M4A4 cells at 10 µg/mL | 100 |
| HuMab-CD74-005-mcMMAF (antibody, IgG1, V domains shown, drug-linker mcMMAF alkylated to the cysteines of the reduced antibody (DAR 3.9-4.0), Antibody-drug conjugate of HuMab-CD74-005 (IgG1,kappa); also called mcMMAF-conjugate of HuMab-CD74-005) VH: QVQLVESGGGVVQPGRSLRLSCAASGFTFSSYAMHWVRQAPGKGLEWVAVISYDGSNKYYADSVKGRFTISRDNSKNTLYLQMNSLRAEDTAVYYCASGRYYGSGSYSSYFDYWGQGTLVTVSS VL: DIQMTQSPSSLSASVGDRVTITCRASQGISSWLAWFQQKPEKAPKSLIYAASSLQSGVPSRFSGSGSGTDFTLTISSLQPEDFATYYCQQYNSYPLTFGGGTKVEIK | % kill of M4A4 cells at 10 µg/mL | 97 |
| HuMab-CD74-011-mcMMAF (antibody, IgG1, V domains shown, drug-linker mcMMAF alkylated to the cysteines of the reduced antibody (DAR 3.9 by HIC), Antibody-drug conjugate of HuMab-CD74-011 (IgG1,kappa)) VH: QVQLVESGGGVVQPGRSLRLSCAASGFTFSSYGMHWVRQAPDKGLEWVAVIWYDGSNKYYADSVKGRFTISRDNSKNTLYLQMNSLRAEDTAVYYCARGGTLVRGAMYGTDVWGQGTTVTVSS VL: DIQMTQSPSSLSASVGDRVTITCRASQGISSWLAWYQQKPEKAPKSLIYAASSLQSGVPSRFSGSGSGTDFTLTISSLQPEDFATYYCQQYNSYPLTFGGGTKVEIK | % kill of M4A4 cells at 10 µg/mL | 96 |
